Structures can show the parent of a compound that is named as a salt.
So I've got IC50 readings for human LOXL2 (Homo sapiens, UniProt Q9Y4K0), take a look.

compound: NCc1cc(Oc2cccc(C(=O)NCCS(N)(=O)=O)c2)ncn1 [Compound 1-13, hydrochloride]
IC50: < 100 nM

compound: NCc1cc(OCc2cccc(C(=O)NCc3cc4cc(F)ccc4[nH]3)c2)ncn1 [Compound 1-85]
IC50: < 100 nM

Consider the record given below.
// query What measured IC50 goes with NCc1cc(N2CCN(C(=O)Nc3ccccc3)CC2)ncn1 [Compound 1-105] ?
// result 100 to 1000 nM

###

Counter-ions that a name gives are not always drawn.
So I've got IC50 readings for human LOXL2 (Homo sapiens), take a look.

molecule: NCc1cc(Oc2cccc(C(=O)NCc3cc4cc(F)ccc4[nH]3)c2)ncn1 [Compound 1-65]
subject of test: human LOXL2 (Homo sapiens)
Sequence (Q9Y4K0 26-774): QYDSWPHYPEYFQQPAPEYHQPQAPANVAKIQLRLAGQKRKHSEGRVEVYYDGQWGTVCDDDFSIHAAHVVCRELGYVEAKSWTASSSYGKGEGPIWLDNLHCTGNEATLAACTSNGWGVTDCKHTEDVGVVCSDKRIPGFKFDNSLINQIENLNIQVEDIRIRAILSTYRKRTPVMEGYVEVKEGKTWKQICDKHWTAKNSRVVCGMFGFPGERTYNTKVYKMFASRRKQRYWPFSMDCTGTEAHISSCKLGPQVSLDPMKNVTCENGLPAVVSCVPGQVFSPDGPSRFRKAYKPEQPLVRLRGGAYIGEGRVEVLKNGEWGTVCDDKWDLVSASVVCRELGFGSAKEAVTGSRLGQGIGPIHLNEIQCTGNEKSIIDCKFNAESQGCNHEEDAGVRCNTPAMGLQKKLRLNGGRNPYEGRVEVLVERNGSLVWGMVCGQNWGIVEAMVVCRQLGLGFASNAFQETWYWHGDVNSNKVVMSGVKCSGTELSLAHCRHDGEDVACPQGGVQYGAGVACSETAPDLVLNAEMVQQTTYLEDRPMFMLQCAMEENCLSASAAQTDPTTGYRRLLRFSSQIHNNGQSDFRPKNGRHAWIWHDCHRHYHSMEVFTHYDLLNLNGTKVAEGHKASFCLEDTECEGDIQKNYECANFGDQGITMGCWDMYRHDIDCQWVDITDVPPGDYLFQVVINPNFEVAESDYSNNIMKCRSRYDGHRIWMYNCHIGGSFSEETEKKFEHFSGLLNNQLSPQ
IC50: < 100 nM

molecule: NCc1cc(Oc2ccc(F)cc2)ncn1 [Compound 1-1, trifluoroacetate]
subject of test: human LOXL2 (Homo sapiens)
IC50: < 100 nM

molecule: NCc1cc(Oc2ccc3[nH]ccc3c2)ncn1 [Compound 1-18, trifluoroacetate]
subject of test: human LOXL2 (Homo sapiens)
IC50: < 100 nM

molecule: NCc1cc(N2CCN(C(=O)Cc3ccccc3)CC2)ncn1 [Compound 1-106]
subject of test: human LOXL2 (Homo sapiens)
IC50: 100 to 1000 nM

molecule: NCc1cc(N2CCC(C(=O)Nc3ccccc3)CC2)ncn1 [Compound 1-103]
subject of test: human LOXL2 (Homo sapiens)
IC50: 100 to 1000 nM

molecule: CN(C(=O)Cn1ccc2c(Oc3cc(CN)ncn3)cccc21)c1ccccc1 [Compound 1-24]
subject of test: human LOXL2 (Homo sapiens)
IC50: < 100 nM

// query What measured IC50 goes with NCc1cc(Oc2cccc(C(=O)Nc3ccc(C(=O)O)cc3)c2)ncn1 [Compound 1-4, hydrochloride] ?
// result < 100 nM

// query What measured IC50 goes with NCc1cc(OCc2cccc(C(=O)N3CCc4cccnc4C3)c2)ncn1 [Compound 1-88] ?
// result < 100 nM

// query What measured IC50 goes with NCc1cc(Oc2cccc3c2CCC(=O)N3CCO)ncn1 [Compound 1-15, hydrochloride] ?
// result < 100 nM

Data provenance is patent US20180186755A1.
